- Test system: SF-268 CNS
- Experiment notes: NCI tumour cell line growth inhibition, 48 h
Measurement label: TGI (µM)
Give bare numbers, in µM.

Known results for compounds:
Compound	Unit text	TGI
C/C(N)=C/C(=O)c1[nH]c(C(=O)O)cc1C1CCN(Cc2ccccc2)C1=O (configuration not stated)	µM	60.8
CN(C)C=Nc1c2ccccc2nc2ccccc12	µM	13.1

Alright, here's another compound for you.
State, in one line, measured TGI of "Clc1cc(Cl)c(OCCCCCCN2CCNCC2)c(Cl)c1"
21.1

====

- Tested on: TK-10 renal
- Experiment notes: NCI tumour cell line growth inhibition, 48 h
Measurement label: GI50

Known results for molecules:
Molecule	Measurement label	Reported
O=C(c1ccc(C(F)(F)F)c(Cl)c1)N(Cc1ccc(Cl)cc1)c1ccc(-c2cc(C(F)(F)F)[nH]n2)c(O)c1	GI50	1.41 µM
Cc1cnc2oc3ccc(O)cc3c2c1-c1ccccc1	GI50	20.3 µM
O=Nc1c(-c2c(O)[nH]c3cc(Br)ccc23)[nH]c2ccccc12	GI50	0.954 µM
COc1ccc(/C=C2\COc3ccc(O)c(O)c3C2=O)c(OC)c1OC	GI50	4.03 µM
C=C1C(=O)O[C@H]2[C@H](OC(C)=O)[C@@H](C)CCCC3(C)OC3CCC3(CO3)[C@H](O)C[C@@H]12 (stereo partly specified)	GI50	7.39 µM

Could you tell me GI50 for each of these molecules? They are listed below.
1. NC(=S)N/N=C1\c2ccccc2-c2c(F)c(F)c(F)c(F)c21
2. COc1cc(CNCCN2C(=O)c3ccc4c5c(ccc(c35)C2=O)C(=O)N(CCNCc2cc(OC)c(OC)c(OC)c2)C4=O)cc(OC)c1OC
3. CC(C)(C)c1cc(/C=N/NC(=O)c2ccccc2NC(=O)c2cccs2)c(O)c(C(C)(C)C)c1

["5.7 µM", "0.78 µM", "0.994 µM"]

Could you tell me GI50 for each of these molecules? They are listed below.
1. O=[N+]([O-])c1ccc(C(Cl)C(Cl)c2ccc(C(Cl)C(Cl)c3ccc([N+](=O)[O-])cc3[N+](=O)[O-])cc2)c([N+](=O)[O-])c1 (stereo unspecified)
2. Cn1cc(-c2nc(-c3c[nH]c4ncccc34)cs2)c2ccccc21
3. COCCOC1=CC(=O)c2c(O)ccc(O)c2C1=O

["0.536 µM", "5.78 µM", "2.9 µM"]
